The reported measurements were obtained from paper PMC5540273.

As a worked illustration, we turn to Kd data collected for WNK4.
Measure Name: Kd

compound="COc1ccc(Nc2nccc(N3CCC(NC(=O)c4cccc(NC(C)=O)c4)C3)n2)cc1 (centres unmarked)" recorded_result="> 10 µM"
compound=Nc1nc(-c2ccccn2)c(-c2ccnc3ccccc23)s1 recorded_result="> 10 µM"

###

- Test system: CDK11;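 note: KINOMEscan kinase panel screen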
- Construct: gene CDK19
- Cond: concentration: 1 μM, replicates: in singlicate; n = 1
Below: a set of entries, each annotated with reported %Inh.
Measure Name: %Inh (%)

molecule=Cl.O=S(=O)(c1cccc(F)c1)c1ccc(Nc2ncnc3cc(Br)sc23)cc1Cl measure_name=%Inh recorded_result=0
molecule=Clc1cc(Nc2ncnc3cc[nH]c23)ccc1OCc1ccccn1 measure_name=%Inh recorded_result=29
molecule=Nc1n[nH]c2nnc(-c3ccccc3)cc12 measure_name=%Inh recorded_result=0
molecule=Nc1nc(-c2ccccn2)c(-c2ccnc3ccccc23)s1 measure_name=%Inh recorded_result=10
molecule="COc1ccc(Nc2nccc(N3CCC(NC(=O)Nc4ccc5c(c4)OCO5)C3)n2)cc1 (stereo not drawn)" measure_name=%Inh recorded_result=46
molecule=CC(C)(C)c1ccc(-n2cnc3c(N)ncnc32)cc1 measure_name=%Inh recorded_result=10
molecule=Cc1cc(N2CCC(NS(=O)(=O)c3ccc(F)cc3)CC2)nc(Nc2cccc(C#N)c2)n1.O=C(O)C(F)(F)F measure_name=%Inh recorded_result=0
molecule=Fc1ccc(Nc2nccc(-c3c(-c4ccc(Cl)cc4)nn4ncccc34)n2)cc1F measure_name=%Inh recorded_result=18
molecule=Cl.c1ccc(Cn2ncc3cc(Nc4ncnc5ccccc45)ccc32)cc1 measure_name=%Inh recorded_result=4
molecule=O=c1cc(N2CCOCC2)nc2n(Cc3cccc(Cl)c3)ccn12 measure_name=%Inh recorded_result=0
molecule="O=C(Nc1ccccc1F)NC1CCN(c2ccnc(Nc3ccc(F)cc3)n2)C1 (stereo not drawn)" measure_name=%Inh recorded_result=19
molecule=CSc1ccc(NC2=C(c3ccccc3Cl)C(=O)NC2=O)cc1 measure_name=%Inh recorded_result=0
molecule=COc1cc2c(Nc3cccc(NC(=O)c4ccccc4)c3)ncnc2cc1OCCCN1CCOCC1 measure_name=%Inh recorded_result=3
molecule=FC(F)(F)c1cc(Nc2nccc(-c3c(-c4ccc(Cl)cc4)nn4ncccc34)n2)ccc1Cl measure_name=%Inh recorded_result=0
molecule=Cc1cccc(-c2nc(Nc3ccc4[nH]nnc4c3)c3ccccc3n2)n1 measure_name=%Inh recorded_result=0
molecule=Nc1nc(-c2ccc3c(N)n[nH]c3c2)cc(N2CCCCC2)n1 measure_name=%Inh recorded_result=0
molecule=O=C(CCO)NCCn1ccc2ncnc(Nc3ccc(Oc4cccc(C(F)(F)F)c4)c(Cl)c3)c21 measure_name=%Inh recorded_result=0
molecule=CN1CCC(n2cnc(-c3ccc(F)cc3)c2-c2ccnc(NC3CCNCC3)n2)CC1 measure_name=%Inh recorded_result=0
